meta.source: PubChem BioAssay

Assay: binders of probe aHhip on microarray, primary screen, stem cell growth factor project, biochemical, small-molecule microarray, fluorescence 635/667 (AID 1087);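 also: score merges spot fluorescence at 667nm with spot signal to noise ratio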
Conditions: higher = more signal
Known composite z-score of a selection of compounds
parameter: composite z-score

>>> print(df.to_string())
                            chemical_string      val
0  CCOC(=O)C[C@H]1[C@H](OC(=O)c2cc3ccccc3oc2=O)[C@@H](NC(=O)Cc2ccc(OC)cc2)c2cc(OCCCO)ccc2N1C(=O)c1ccc2ccccc2n1   -0.123
1  COC(=O)c1cn(C[C@@H](Cc2ccccc2)NC(=O)N[C@H](CO)CCc2oc(C(C)=O)c(C(=O)OC)c2C(=O)OC)nn1   0.0274
2  COC(=O)c1c(CC[C@@H](CO)NC(=O)N[C@H](Cn2cc(C3(O)CCCCC3)nn2)C(C)C)oc(C(C)=O)c1C(=O)OC  -0.0237
3  COC(=O)CCCCCCC(=O)Nc1ccc(NC(=O)CCCC[P+](c2ccccc2)(c2ccccc2)c2ccccc2)cc1  -0.0296

* * *

Tested on: Inhibin beta A chain (activin A)
Test: INHBA (activin A) binders on microarrays, primary screen, biochemical, small-molecule microarray, 635 nm fluorescence scan (AID 1107);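 also: mouse activin A protein probed at 4.33 µg/mL on printed slides; score merges bound-protein fluorescence near 667 nm with spot signal-to-noise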
Conditions: small-molecule microarray binding, higher = more signal
parameter: composite z-score

In [3]: df
Out[3]:
                                    molecule          parameter      val
 0  C[C@]1(C(=O)NC2CC2)c2ccccc2C(=O)N(Cc2ccccc2)[C@H]1c1ccc(CO)cc1  composite z-score  -0.0478
 1  COC(=O)[C@@]1(Cc2ccccc2)[C@H]2c3cc(C(=O)N(C)C)n(Cc4c(CO)[nH]cc(C)c4=O)c3C[C@H]2CN1C(=O)c1ccccc1  composite z-score      1.1
 2  CN1C(=O)C2C=CC(C(O)c3cccc4ccccc34)N(N3CCCCC3)C2C1=O (stereo not drawn)  composite z-score    0.784
 3  O=C(CS)NCCCCCNC(=O)[C@@H]1C[C@@H]2C(=O)N3CCC[C@H]3C(=O)N2[C@@H]1c1cccc(OCCO)c1  composite z-score   -0.525
 4  CC1=C[C@@]2(CO)C(=O)[C@]3(CO3)[C@@H]1[C@H]1[C@]2(C)C=C(CO)C(=O)[C@]12CO2  composite z-score    0.421
 5  C=CC1c2cc(O)c(OC)cc2CCN1Cc1cc2c(cc1Br)OCO2 (stereo not drawn)  composite z-score      1.9
 6  CCOC(=O)C[C@H]1[C@H](OC(=O)c2ccccc2-c2ccccc2)[C@@H](NC(=O)C2CCCCC2)c2cc(OCCCO)ccc2N1C(=O)Cc1ccc(OC)cc1  composite z-score    0.489
 7  Cc1ccc(S[C@]2(C(=O)O)CC(=O)N(Cc3cc(C(F)(F)F)cc(C(F)(F)F)c3)[C@@H]2c2ccc(CO)cc2)cc1  composite z-score   -0.131
 8  O=C1NC(=O)C2C1C=CC(C(O)CCc1ccccc1)N2Nc1ccc(Cl)cc1Cl (stereo not drawn)  composite z-score     1.28
 9  CCCCCCc1nc(C2CC2)cc2c1[Si](C(C)C)(C(C)C)OC2  composite z-score    0.819
10  CCCCCCc1nc(C2CC2)cc2c1[Si](C(C)C)(C(C)C)O[C@H]2c1ccccc1  composite z-score    0.741
11  COCCCNC(=O)[C@]1(CCS(=O)(=O)c2ccccc2)N=C(c2ccc(OCCCO)cc2)O[C@@H]1c1ccccc1N=[N+]=[N-]  composite z-score    0.963
12  COc1ccc(NC(=O)O[C@H]2[C@H](OC(=O)Nc3ccccc3)[C@@H](OC(=O)Nc3ccccc3)[C@@H](OC)O[C@@H]2CO)cc1  composite z-score    0.385

* * *

Target: Focal adhesion kinase 1 (Homo sapiens)
Assay: small-molecule microarray binders of FAK, primary screen, biochemical, 635/667 nm fluorescence, BSA, DTT (AID 1130);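 also: composite of spot emission at 667 nm and signal to noise over triplicate slides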
Conditions: PTK2 binding, 635 nm fluorescence, higher = more signal
Known composite z-score of a selection of compounds
parameter: composite z-score

>>> df
                                   compound      val
0  C=C(C)C1CCC(C(O)C2C=CC3C(=O)N(C)C(=O)C3N2N2CCCCC2)CC1 (stereo not given)    0.525
1  CN(C)CCCCNC(=O)[C@@H]1C[C@@H]2C(=O)N[C@@H](Cc3ccccc3)C(=O)N2[C@@H]1c1cccc(OCCO)c1  -0.0323
2  Cc1cc(C)c(C(O)C2C=CC3C(=O)N(c4ccccc4)C(=O)C3N2Nc2ccc(C(C)C)cc2)c(C)c1 (stereo not given)     1.22
3  C=CCN1C(=O)[C@@]2(O[C@@H](CCn3cc([C@H](O)c4ccccc4)nn3)[C@H]([Si](C)(C)c3ccc(OC)cc3)[C@H]2C)c2cc(N3CCC3=O)ccc21   -0.082
4  CC(C)[Si](C#C[Si](C(C)C)(C(C)C)C(C)C)(O[C@H](C)c1cn([C@H](CO)Cc2ccccc2)nn1)C(C)C     0.21

* * *

Assay: PSAC antagonists in infected red cells, primary screen, cell-based, P. falciparum Indochina, OD700, 2 h (AID 1155);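 also: lysis reports solute entry through the parasite surface anion channel PSAC; channel blockers reduce lysis of infected cells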
Conditions: P. falciparum Indochina infected erythrocytes, osmotic lysis OD700; higher = more signal, called active from +8 up or from −8 down
Known z-score of a selection of compounds

compound	z-score
O=C1NC(=O)C2C1C=CC(C(O)c1c(F)cccc1Cl)N2Nc1ccc(Cl)cc1Cl (stereo not given)	0.914
Cc1ccc(S[C@]2(C(=O)NCC(F)(F)F)CC(=O)N(C3CCCCC3)[C@@H]2c2ccc(CO)cc2I)cc1	1.29
C=CCOC(=O)[C@H]1[C@@H]2C(=O)O[C@@H](c3ccccc3)[C@@H](c3ccccc3)N2[C@@H](c2ccc(OCCOC(=O)[C@@H]3C[C@@H]4C(=O)N5CCC[C@H]5C(=O)N4[C@@H]3c3ccc(O)cc3)cc2)[C@]12C(=O)Nc1ccc(I)cc12	1.74
COc1ccc(CN(C2=CC[C@@]3(C(N)=O)C(=O)C(Cl)=C(Cl)C(=O)[C@@]3(C#N)C2)S(=O)(=O)c2ccc(Br)cc2)cc1	-1.24
CCCC[C@@H]1C[C@H]1[C@@H](NC(=O)Cc1ccccc1)c1ccc(-c2ccccc2)cc1	0.283

* * *

Known composite z-score of a selection of compounds
Tested on: Lefty1
Assay: Lefty1 binders on small-molecule microarrays, primary screen, biochemical, small-molecule microarray, 635/667 nm fluorescence (AID 1139)
Settings: small-molecule microarray binding, fluorescence 635/667; higher = more signal
parameter: composite z-score

compound	target	parameter	val
C=CCC(OC(C)=O)[C@@H]1[C@@H](N(Cc2ccc(-c3cccc(C(F)(F)F)c3)o2)C(=O)c2ccc(C)cc2)c2cc(OCCCO)ccc2N1C(=O)c1ccc2ccccc2c1 (stereo partly drawn)	Lefty1	composite z-score	0.398
CCOC(=O)C[C@H]1[C@H](OC(=O)c2ccc(C(=O)c3ccccc3)cc2)[C@@H](NC(=O)Cc2ccc(OC)cc2)c2cc(OCCCO)ccc2N1C(=O)c1ccccc1	Lefty1	composite z-score	0.162
COC(=O)[C@@]1(Cc2ccc(OC)cc2)[C@H]2c3cc(C(=O)N(C)C)n(Cc4ccc(Cl)c(C(F)(F)F)c4)c3C[C@H]2CN1C(=O)c1ccccc1	Lefty1	composite z-score	-0.68
COc1cccc(/C=C/C=O)c1	Lefty1	composite z-score	-0.0262
CC(C)N1CC=CC23O[C@@H]4C=CCOC(=O)[C@@H]4[C@H]2C(=O)N(CCCO)[C@@H]3C1=O (stereo partly drawn)	Lefty1	composite z-score	-0.133
CCCC[C@@H](O)C1=C(COc2ccccc2)C[C@H]2C(=O)N(C)C(=O)[C@H]2[C@H]1CO	Lefty1	composite z-score	0.0695
COCCOC(=O)N1C(=O)[C@@]2(c3cc(C#CCNC(N)=O)ccc31)[C@H](C(=O)N1CCc3cc(OC)c(OC)cc3C1)[C@H]1C(=O)O[C@H](c3ccccc3)[C@H](c3ccccc3)N1[C@@H]2c1ccccc1OCCO	Lefty1	composite z-score	0.716
CO[C@]12C=C(Br)[C@@H](C[C@@H]1c1cccc(C)c1)[C@@]1(CO1)C2=O	Lefty1	composite z-score	0.802

* * *

Target: NADPH oxidase 5 (Homo sapiens) (UniProt Q96PH1)
Sequence (Q96PH1 whole entry, looked up): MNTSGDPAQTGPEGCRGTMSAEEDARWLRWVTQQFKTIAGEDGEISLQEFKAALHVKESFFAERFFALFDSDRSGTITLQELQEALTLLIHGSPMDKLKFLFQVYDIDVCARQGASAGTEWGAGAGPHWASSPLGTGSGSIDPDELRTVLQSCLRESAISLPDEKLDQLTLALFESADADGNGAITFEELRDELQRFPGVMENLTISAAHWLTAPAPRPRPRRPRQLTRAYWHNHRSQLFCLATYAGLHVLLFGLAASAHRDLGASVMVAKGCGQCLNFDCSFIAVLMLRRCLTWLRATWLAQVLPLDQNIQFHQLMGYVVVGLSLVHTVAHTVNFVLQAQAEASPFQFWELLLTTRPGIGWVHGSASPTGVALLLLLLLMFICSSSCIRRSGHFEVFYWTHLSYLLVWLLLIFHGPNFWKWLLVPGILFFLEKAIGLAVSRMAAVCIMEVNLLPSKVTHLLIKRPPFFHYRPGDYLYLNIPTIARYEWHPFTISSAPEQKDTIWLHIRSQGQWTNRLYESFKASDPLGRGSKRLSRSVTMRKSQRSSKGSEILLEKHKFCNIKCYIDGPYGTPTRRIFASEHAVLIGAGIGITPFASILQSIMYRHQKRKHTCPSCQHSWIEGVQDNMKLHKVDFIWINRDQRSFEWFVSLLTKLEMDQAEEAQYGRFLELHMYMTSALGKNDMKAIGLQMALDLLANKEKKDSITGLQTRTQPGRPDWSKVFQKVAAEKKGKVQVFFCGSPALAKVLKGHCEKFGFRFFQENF
Experiment: NOX5-dependent H2O2 signal modulators, primary screen, NOX inhibitor project, cell-based, HEK293-NOX5, Amplex Red fluorescence (AID 1161)
Conditions: HEK293-NOX5, ionomycin, 45 min, higher = more signal
Known z-score of a selection of compounds
parameter: z-score

                                   compound     val
0  C=C(C)C1CCC(C(O)C2C=CC3C(=O)N(C)C(=O)C3N2N2CCCCC2)CC1 (centres undefined)  0.0159
1  C=CC[C@]1(C(=O)O)COC(c2ccc(OCCCO)cc2)=N1    1.09
2  CCCCC(=C=CC[C@@H](O)c1ccccc1OCCO)C[C@@H](O)COCc1ccccc1   -2.04
3  C=C(CCCC)/C(=C/C[C@@H](OC(=O)c1ccncc1)c1ccccc1OCCO)c1cnc2ccccc2c1  -0.524
